Test system: U251 CNS
Test: NCI-60 one-dose screen, 48 h
Conditions: 10 µM
Compounds without any hit were thinned out: in the full panel of roughly 83,000, 20% have a hit. Calls of active or inactive are those of the source. Rule for the calls: active = growth percent below 10; inactive = the rest.
Write down one outcome, taken from active, inactive

[
  {
    "Compound": "COc1cc(-c2cc(/C=C/C(=O)c3ccc(Cl)c(Cl)c3)[nH]n2)cc(OC)c1OC",
    "Class assignment": "inactive"
  },
  {
    "Compound": "COc1cc([C@@H]2c3cc4c(cc3C(Br)[C@H]3COC(=O)[C@H]23)OCO4)cc(OC)c1OC (some centres not stated)",
    "Class assignment": "active"
  },
  {
    "Compound": "COc1ccc2c(c1)sc1nc(-c3ccccc3)c(-c3ccc(O)c(OC)c3)n12",
    "Class assignment": "inactive"
  },
  {
    "Compound": "COc1cc2c(cc1OCCCN1CCN(c3ncnc4ccccc34)CC1)N=CC1CCCN1C2=O (configuration not stated)",
    "Class assignment": "active"
  },
  {
    "Compound": "c1ccc([C@H]2CN3CCSC3=N2)cc1",
    "Class assignment": "inactive"
  },
  {
    "Compound": "CN(CCc1ccccn1)c1ccccc1",
    "Class assignment": "inactive"
  },
  {
    "Compound": "COc1ccc(Cl)cc1-n1nnc(-c2nc3ccccc3[nH]2)c1N",
    "Class assignment": "inactive"
  },
  {
    "Compound": "N=c1c2c(-c3ccccc3)c(-c3ccccc3)n(Cc3ccccc3)c2ncn1CCCO",
    "Class assignment": "inactive"
  },
  {
    "Compound": "COc1ccc(OC)c(NC(=O)c2sc3nc4c(cc3c2N)C(=O)CCC4)c1",
    "Class assignment": "inactive"
  },
  {
    "Compound": "CNc1ncc(-c2ccc(C(F)(F)F)cc2)c(NC2CCCCCC2)n1",
    "Class assignment": "inactive"
  }
]

# input Test call, this compound: Cc1cc(O)c(C(C)(C)C)cc1Sc1cc(C(C)(C)C)c(O)cc1C
# output inactive

# input Test call, this compound: Nc1cc2c(cc1Cl)-c1ccc([N+](=O)[O-])cc1/C2=N\O
# output inactive

----------
Test system: 786-0 renal
Test: NCI-60 one-dose screen, 48 h (100 = growth as untreated, 0 = no growth, -100 = all killed)
Details: 10 µM
The panel holds about 83,000 compounds, 20% with a hit somewhere; the sample as a whole holds those more often.
In this section, each of the compounds is paired with its reported growth.
Your answer is read as %, so omit the unit and give the number.

# input compound: Nc1c(C(=O)Nc2ccccc2Cl)sc2nc3c(cc12)C(=O)CCC3 ; wanted: its growth
# output 91.1

# input compound: O=c1cc(-c2ccccc2)[nH]n1-c1nc2ccccc2[nH]1 ; wanted: its growth
# output 50.1

# input compound: N=C(N)c1ccc(-c2ccc(-c3ccccc3)o2)nc1 ; wanted: its growth
# output 90.7

----------
Tested on: SW-620 colon
Assay: NCI-60 one-dose screen, 48 h (100 = growth as untreated, 0 = no growth, -100 = all killed)
Settings: 10 µM
Description: Growth inhibition of the SW-620 human tumor cell line is measured as a screen for anti-cancer activity. Cells are grown in 96 well plates and exposed to the test compound for 48 hours. Compounds are tested at a single concentration, which is 10^-5 M for most compounds. The reported endpoint is percent growth (GI% or GIPRCNT), where numbers from 0 - 100% represent growth inhibition, and numbers from -100% - 0 represent cell death. For example, a value of 40 represents 60% growth inhibition. […]
Compounds without any hit were thinned out: in the full panel of roughly 83,000, 20% have a hit.
In this section, each of the compounds is paired with its reported growth.
Your answer is read as %, so omit the unit and give the number.

Example cases with answers are listed next.
[
  {
    "Molecule smiles": "NC(=S)N=Nc1c(O)c2ccccc2c2ccccc12",
    "Observed value": 47
  },
  {
    "Molecule smiles": "Nc1nc(N)c(NC(=O)CNc2ccc(C(=O)O)cc2)c(N)n1",
    "Observed value": 105
  },
  {
    "Molecule smiles": "Nc1c(C(=O)Nc2cccc3ccccc23)sc2nc3c(cc12)C(=O)CCC3",
    "Observed value": 21.3
  },
  {
    "Molecule smiles": "CCN(CC)CCN1CC(=O)Nc2cc(Cl)ccc21",
    "Observed value": 86.4
  },
  {
    "Molecule smiles": "O=C(Nc1ccccc1)Nc1cccc(-n2cc(-c3ccncc3)c(-c3ccc(O)c(Cl)c3)n2)c1",
    "Observed value": 50.8
  },
  {
    "Molecule smiles": "COc1ccc(/C=C/C(=O)Nc2ccc(-c3nc4ccc(OC)cc4s3)cc2)cc1",
    "Observed value": 114
  },
  {
    "Molecule smiles": "O=C1/C(=C\\c2cn(C(=O)c3ccc(Cl)cc3)c3ccccc23)c2ccccc2N1C(=O)c1ccc(Cl)cc1",
    "Observed value": 93.1
  }
]

# input compound: CC(=O)n1c(-c2ccc(Cl)c(Cl)c2)cn(-c2ccc(Cl)cc2)c1=O ; wanted: its growth
# output 38.7
